# measured-target: Myelin-associated glycoprotein (Mus musculus, UniProt P20917)
# Sequence (P20917 whole entry): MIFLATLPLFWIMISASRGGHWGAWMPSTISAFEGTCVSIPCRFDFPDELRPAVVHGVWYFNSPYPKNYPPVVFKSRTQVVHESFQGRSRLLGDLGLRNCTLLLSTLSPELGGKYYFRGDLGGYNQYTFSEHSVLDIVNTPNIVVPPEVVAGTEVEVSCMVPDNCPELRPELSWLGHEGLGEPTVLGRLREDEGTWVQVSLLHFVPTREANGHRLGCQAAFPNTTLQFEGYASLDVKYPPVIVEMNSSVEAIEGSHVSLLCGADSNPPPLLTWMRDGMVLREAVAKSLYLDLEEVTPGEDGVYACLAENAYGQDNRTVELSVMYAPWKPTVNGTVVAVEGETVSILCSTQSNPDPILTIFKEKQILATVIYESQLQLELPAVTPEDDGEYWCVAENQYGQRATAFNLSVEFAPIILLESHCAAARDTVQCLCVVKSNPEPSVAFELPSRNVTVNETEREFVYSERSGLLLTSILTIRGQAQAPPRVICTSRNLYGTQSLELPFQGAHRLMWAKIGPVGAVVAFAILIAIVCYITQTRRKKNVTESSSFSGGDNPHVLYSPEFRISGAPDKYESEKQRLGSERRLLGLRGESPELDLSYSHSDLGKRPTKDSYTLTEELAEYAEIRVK
# procedure-summary: Binding affinity to mouse MAGd1-3Fc expressed in CHO-Lec 3.2.8.1 cells under HBS-EP condition by CM4 chip SPR analysis
pKd: −log10 of the molar value.
measured-endpoint: pKd

1. CC(=O)N[C@H]1[C@H]([C@@H](O)[C@H](O)CNC(=O)c2ccccc2)O[C@@](OCc2ccccc2)(C(=O)O)C[C@@H]1O
4.70

====

# measured-target: Myelin-associated glycoprotein (Mus musculus)
# procedure-summary: Binding affinity to mouse MAGd1-3Fc expressed in CHO-Lec 3.2.8.1 cells under carboxymethyl-dextran sodium salt condition by CM5 chip SPR analysis
measured-endpoint: Kd

1. CC(=O)N[C@H]1[C@H]([C@@H](O)[C@H](O)CNC(=O)c2ccccc2)O[C@@](OCc2ccccc2)(C(=O)O)C[C@@H]1O
17.8 µM

Measured values drawn from ChEMBL document CHEMBL1156883 for this set.
